# targetOfAssay: Programmed Death 1 (PD-1) (UniProt Q15116 25-288, limits assumed)
# Sequence (Q15116 25-288 limits assumed): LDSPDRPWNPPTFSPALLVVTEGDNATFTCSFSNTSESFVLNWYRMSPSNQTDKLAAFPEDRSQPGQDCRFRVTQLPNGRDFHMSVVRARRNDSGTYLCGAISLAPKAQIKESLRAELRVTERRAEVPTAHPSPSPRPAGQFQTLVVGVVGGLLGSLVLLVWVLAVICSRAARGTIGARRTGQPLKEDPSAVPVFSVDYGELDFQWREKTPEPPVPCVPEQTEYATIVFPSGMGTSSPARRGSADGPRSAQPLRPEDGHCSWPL
# assayProcedure: rank of the clone among the humanized BAP049 clones by FACS data
quantityMeasured: Ranking, FACS data
Numbers only.

The examples below pair each entry with its known result.
binder: BAP049-hum03 (antibody, human IgG4 S228P, kappa, V domains shown, also called clone 3) VH: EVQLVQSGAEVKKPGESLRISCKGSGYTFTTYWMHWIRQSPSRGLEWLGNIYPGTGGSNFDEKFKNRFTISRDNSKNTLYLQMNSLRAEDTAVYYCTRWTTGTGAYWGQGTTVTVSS VL: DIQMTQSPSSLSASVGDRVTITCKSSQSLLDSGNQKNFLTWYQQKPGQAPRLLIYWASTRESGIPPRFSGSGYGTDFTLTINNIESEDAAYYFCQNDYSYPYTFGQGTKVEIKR
quantityMeasured: Ranking, FACS data
endpointValue: 7
//
binder: BAP049-hum02 (antibody, human IgG4 S228P, kappa, V domains shown, also called clone 2) VH: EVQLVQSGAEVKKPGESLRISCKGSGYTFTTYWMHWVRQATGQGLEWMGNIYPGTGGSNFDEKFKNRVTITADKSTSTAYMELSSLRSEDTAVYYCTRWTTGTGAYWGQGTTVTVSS VL: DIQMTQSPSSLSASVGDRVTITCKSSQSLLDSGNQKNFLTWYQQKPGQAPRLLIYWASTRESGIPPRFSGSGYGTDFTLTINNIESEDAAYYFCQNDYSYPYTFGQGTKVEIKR
quantityMeasured: Ranking, FACS data
endpointValue: 6
//
binder: BAP049-hum16 (antibody, human IgG4 S228P, kappa, V domains shown, also called clone 16) VH: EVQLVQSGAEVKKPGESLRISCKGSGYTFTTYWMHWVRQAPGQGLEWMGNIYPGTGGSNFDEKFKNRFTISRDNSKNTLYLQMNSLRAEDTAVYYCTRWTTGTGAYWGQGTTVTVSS VL: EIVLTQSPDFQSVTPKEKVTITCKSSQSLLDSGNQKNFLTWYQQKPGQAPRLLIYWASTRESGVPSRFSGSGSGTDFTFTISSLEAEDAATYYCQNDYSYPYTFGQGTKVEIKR
quantityMeasured: Ranking, FACS data
endpointValue: 15

For every record below, what is its Ranking, FACS data?
1. BAP049-hum12 (antibody, human IgG4 S228P, kappa, V domains shown, also called clone 12) VH: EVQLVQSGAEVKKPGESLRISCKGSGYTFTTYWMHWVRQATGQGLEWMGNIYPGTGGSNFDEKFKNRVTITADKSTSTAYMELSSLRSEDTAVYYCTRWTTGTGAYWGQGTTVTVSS VL: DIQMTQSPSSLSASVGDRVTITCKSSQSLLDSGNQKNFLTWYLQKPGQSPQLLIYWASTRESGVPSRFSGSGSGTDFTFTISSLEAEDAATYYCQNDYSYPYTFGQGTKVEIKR
2. BAP049-hum05 (antibody, human IgG4 S228P, kappa, V domains shown, also called humanized BAP049 clone hum05) VH: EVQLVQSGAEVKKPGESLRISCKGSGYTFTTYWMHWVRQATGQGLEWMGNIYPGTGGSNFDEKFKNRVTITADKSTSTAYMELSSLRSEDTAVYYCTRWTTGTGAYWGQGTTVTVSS VL: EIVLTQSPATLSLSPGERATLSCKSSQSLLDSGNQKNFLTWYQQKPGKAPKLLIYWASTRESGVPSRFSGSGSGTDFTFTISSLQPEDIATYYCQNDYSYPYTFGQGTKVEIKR
3. BAP049-hum01 (antibody, human IgG4 S228P, kappa, V domains shown, Humanized anti-PD-1 mAb; also called humanized BAP049 clone hum01) VH: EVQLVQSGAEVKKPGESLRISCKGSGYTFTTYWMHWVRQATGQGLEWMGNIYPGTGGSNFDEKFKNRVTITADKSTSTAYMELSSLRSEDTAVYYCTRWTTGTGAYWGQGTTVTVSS VL: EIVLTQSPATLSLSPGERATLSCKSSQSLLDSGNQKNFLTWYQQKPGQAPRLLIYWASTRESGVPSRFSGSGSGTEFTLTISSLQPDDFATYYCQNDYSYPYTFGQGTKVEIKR
4. BAP049-hum04 (antibody, human IgG4 S228P, kappa, V domains shown, also called clone 4) VH: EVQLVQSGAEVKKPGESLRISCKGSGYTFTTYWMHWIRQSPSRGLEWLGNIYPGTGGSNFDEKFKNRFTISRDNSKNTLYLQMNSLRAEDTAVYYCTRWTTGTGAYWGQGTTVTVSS VL: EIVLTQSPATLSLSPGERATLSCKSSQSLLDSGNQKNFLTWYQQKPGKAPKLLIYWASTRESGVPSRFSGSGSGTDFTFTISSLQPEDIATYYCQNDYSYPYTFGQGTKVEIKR

Found:
3
5
2
14
